The origin of these recorded values is ChEMBL document CHEMBL1125654.

assay protocol: Partition coefficient (logD7.4)
conditions: octanol/water, pH 7.4, logD
Field: logD. Provide a value for each of the compounds that follow.

Give the measured logD of CCC(C)CNC(=O)C[C@H](O)C(CC(C)C)NC(=O)C(CCCCCNC(=S)NC)NC(=O)C(Cc1cccc2ccccc12)Cc1cccc2ccccc12 (stereo partly specified) .
5.41

Give the measured logD of CNC(=S)NCCCCC(NC(=O)C(Cc1cccc2ccccc12)Cc1cccc2ccccc12)C(=O)NC(CC(C)C)[C@@H](O)C(F)(F)C(=O)N1CCOC(CCN)C1 (stereo partly specified) .
5.5

Give the measured logD of CCC(C)CNC(=O)C[C@H](O)C(CC(C)C)NC(=O)C(CCCC/N=C(/S)NC)NC(=O)C(Cc1cccc2ccccc12)Cc1cccc2ccccc12 (stereo partly specified) .
5.71

Give the measured logD of CC(C)CC(NC(=O)C[C@H](O)C(CC(C)C)NC(=O)C(CCCCNC(=O)OCc1ccccc1)NC(=O)C(Cc1cccc2ccccc12)Cc1cccc2ccccc12)C(=O)NCc1ccccc1 (stereo partly specified) .
7.69

Give the measured logD of CCC(C)CNC(=O)C[C@H](O)C(CC(C)C)NC(=O)C(CCCCNC(C)=O)NC(=O)C(Cc1cccc2ccccc12)Cc1cccc2ccccc12 (stereo partly specified) .
4.38

Give the measured logD of CC(=O)NCC#CCC(NC(=O)C(Cc1ccccc1)NS(=O)(=O)N1CCOCC1)C(=O)NC(CC1CCCCC1)[C@@H](O)CC(=O)N1CCOC(CCN)C1 (stereo partly specified) .
2.12

----------
target or test system: Renin (Homo sapiens)
assay protocol: Inhibitory activity against monkey plasma renin.
Format: cell-free, Cercopithecidae
conditions: target entry is the homologue from another species
Field: IC50. Provide a value for each of the compounds that follow.
Give the quantity in nM, number only.

Give the measured IC50 of C/N=C(\S)NCCCCC(NC(=O)C(Cc1cccc2ccccc12)Cc1cccc2ccccc12)C(=O)NC(CC(C)C)[C@@H](O)CC(=O)NC(CC(C)C)C(=O)NCc1ccccc1 (stereo partly drawn) .
99

Give the measured IC50 of CCC(C)CNC(=O)C[C@H](O)C(CC(C)C)NC(=O)C(CCCCNC(C)=O)NC(=O)C(Cc1cccc2ccccc12)Cc1cccc2ccccc12 (stereo partly drawn) .
36

Give the measured IC50 of CNC(=S)NCC#CCC(NC(=O)C(Cc1cccc2ccccc12)Cc1cccc2ccccc12)C(=O)NC(CC1CCCCC1)[C@@H](O)CC(=O)N1CCOC(CCN)C1 (stereo partly drawn) .
48

----------
target or test system: Renin (Homo sapiens, UniProt P00797)
Sequence (P00797 whole entry): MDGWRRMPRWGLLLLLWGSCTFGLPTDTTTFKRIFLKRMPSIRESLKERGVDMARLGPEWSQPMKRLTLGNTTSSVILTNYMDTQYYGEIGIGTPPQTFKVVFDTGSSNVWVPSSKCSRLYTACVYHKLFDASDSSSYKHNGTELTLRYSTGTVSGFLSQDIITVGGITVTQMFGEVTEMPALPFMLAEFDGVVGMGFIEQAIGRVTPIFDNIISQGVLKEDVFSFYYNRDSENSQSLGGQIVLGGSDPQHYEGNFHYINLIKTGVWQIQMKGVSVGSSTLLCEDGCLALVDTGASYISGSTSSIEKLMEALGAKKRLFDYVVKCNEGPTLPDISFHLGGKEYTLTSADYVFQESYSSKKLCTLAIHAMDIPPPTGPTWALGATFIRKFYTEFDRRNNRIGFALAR
assay protocol: Inhibitory activity against monkey plasma renin.
Format: cell-free, Cercopithecidae
conditions: target entry is the homologue from another species
Field: log10(IC50). Provide a value for each of the compounds that follow.
Answers are given as log10 of IC50 in µM.

Give the measured log10(IC50) of CC(C)(C)OC(=O)NCC#CCC(NC(=O)C(Cc1ccccc1)NS(=O)(=O)N1CCOCC1)C(=O)NC(CC1CCCCC1)[C@@H](O)CC(=O)N1CCOC(CCN)C1 (stereo in doubt; 61b) .
-0.15

Give the measured log10(IC50) of CCC(C)CNC(=O)C[C@H](O)C(CC(C)C)NC(=O)C(CCCCNC(=S)Nc1ccccc1)NC(=O)C(Cc1cccc2ccccc12)Cc1cccc2ccccc12 (some centres not stated) .
-0.86

Give the measured log10(IC50) of CNC(=S)NCCCCC(NC(=O)C(Cc1cccc2ccccc12)Cc1cccc2ccccc12)C(=O)NC(CC(C)C)[C@@H](O)CC(=O)N(C)OC (some centres not stated) .
1.03

Give the measured log10(IC50) of CCC(C)CNC(=O)C[C@H](O)C(CC(C)C)NC(=O)C(C/C=C/C/N=C(/S)NC)NC(=O)C(Cc1cccc2ccccc12)Cc1cccc2ccccc12 (some centres not stated) .
-1.59

Give the measured log10(IC50) of CC(=O)NCC#CCC(NC(=O)C(Cc1cccc2ccccc12)Cc1cccc2ccccc12)C(=O)NC(CC1CCCCC1)[C@@H](O)CC(=O)N1CCOC(CCN)C1 (some centres not stated) .
-2.05

Give the measured log10(IC50) of C/N=C(\S)NCC#CCC(NC(=O)C(Cc1ccccc1)NS(=O)(=O)N1CCOCC1)C(=O)NC(CC1CCCCC1)[C@@H](O)CC(=O)N1CCOC(CCN)C1 (some centres not stated) .
-2.48

Give the measured log10(IC50) of CCC(C)CNC(=O)C[C@H](O)C(CC(C)C)NC(=O)C(CCCC/N=C(/S)NC)NC(=O)C(Cc1cccc2ccccc12)Cc1cccc2ccccc12 (some centres not stated) .
-1.64

Give the measured log10(IC50) of CC(C)(C)OC(=O)NCC#CCC(NC(=O)C(Cc1ccccc1)NS(=O)(=O)N1CCOCC1)C(=O)NC(CC1CCCCC1)[C@@H](O)CC(=O)N1CCOC(CCN)C1 (stereo in doubt; 61a) .
-1.96

Give the measured log10(IC50) of CCC(C)CNC(=O)C[C@H](O)C(CC(C)C)NC(=O)C(CCNC(=S)NC)NC(=O)C(Cc1cccc2ccccc12)Cc1cccc2ccccc12 (some centres not stated) .
0.40

Give the measured log10(IC50) of CC(C)CC(NC(=O)C(CCCC/N=C(/N)N[N+](=O)[O-])NC(=O)C(Cc1cccc2ccccc12)Cc1cccc2ccccc12)[C@@H](O)CC(=O)N1CCOC(CCN)C1 (some centres not stated) .
-1.40

Give the measured log10(IC50) of CCC(C)CNC(=O)C[C@H](O)C(CC(C)C)NC(=O)C(CCNC(C)=O)NC(=O)C(Cc1cccc2ccccc12)Cc1cccc2ccccc12 (some centres not stated) .
0.62

Give the measured log10(IC50) of CCC(C)CNC(=O)C[C@H](O)C(CC(C)C)NC(=O)C(CCCn1cccc1)NC(=O)C(Cc1cccc2ccccc12)Cc1cccc2ccccc12 (some centres not stated) .
-0.41

----------
target or test system: Renin (Homo sapiens)
assay protocol: Inhibitory activity against monkey plasma renin.
Type: cell-free, Cercopithecidae
conditions: target entry is the homologue from another species
readout label: pIC50
API: returns pIC50 as number; meaning -log10 of concentration in mol/L.

Give the measured pIC50 of CCC(C)CNC(=O)C[C@H](O)C(CC(C)C)NC(=O)C(C/C=C\CNC(C)=O)NC(=O)C(Cc1cccc2ccccc12)Cc1cccc2ccccc12 (stereo partly drawn) .
7.00

Give the measured pIC50 of CC(=O)NCC#CCC(NC(=O)C(Cc1ccccc1)NS(=O)(=O)N1CCOCC1)C(=O)NC(CC1CCCCC1)[C@@H](O)CC(=O)N1CCOC(CCN)C1 (stereo partly drawn) .
9.30

Give the measured pIC50 of CNC(=S)NCCCCC(NC(=O)C(Cc1cccc2ccccc12)Cc1cccc2ccccc12)C(=O)NC(CC(C)C)[C@@H](O)C(F)(F)C(=O)N1CCOC(CCN)C1 (stereo partly drawn) .
6.46

Give the measured pIC50 of C/N=C(\S)NCCCCC(NC(=O)C(CC(=O)N1CCOCC1)Cc1cccc2ccccc12)C(=O)NC(CC1CCCCC1)[C@@H](O)CC(=O)N1CCOC(CCN)C1 (stereo partly drawn) .
7.44

Give the measured pIC50 of CCC(C)CNC(=O)C[C@H](O)C(CC(C)C)NC(=O)C(CCCCNC(=NC#N)SC)NC(=O)C(Cc1cccc2ccccc12)Cc1cccc2ccccc12 (stereo partly drawn) .
7.39

Give the measured pIC50 of CNC(=S)NCCCCC(NC(=O)C(Cc1ccccc1)S(=O)(=O)C(C)(C)C)C(=O)NC(CC1CCCCC1)[C@@H](O)CC(=O)N1CCOC(CCN)C1 (stereo partly drawn) .
7.57

Give the measured pIC50 of N=C(NCC#CCC(NC(=O)C(Cc1cccc2ccccc12)Cc1cccc2ccccc12)C(=O)NC(CC1CCCCC1)[C@@H](O)CC(=O)N1CCOC(CCN)C1)N[N+](=O)[O-] (stereo partly drawn) .
7.92

Give the measured pIC50 of CC(C)CC(NC(=O)C(CCCC/N=C(/N)N[N+](=O)[O-])NC(=O)C(CC(=O)N1CCOCC1)Cc1cccc2ccccc12)[C@@H](O)CC(=O)N1CCOC(CCN)C1 (stereo partly drawn) .
6.40

Give the measured pIC50 of CCC(C)CNC(=O)C[C@H](O)C(CC(C)C)NC(=O)C(CCCCNC(N)=O)NC(=O)C(Cc1cccc2ccccc12)Cc1cccc2ccccc12 (stereo partly drawn) .
7.05

Give the measured pIC50 of CCC(C)CNC(=O)C[C@H](O)C(CC(C)C)NC(=O)C(Cc1cnc[nH]1)NC(=O)C(Cc1cccc2ccccc12)Cc1cccc2ccccc12 (stereo partly drawn) .
7.07

Give the measured pIC50 of NCCC1CN(C(=O)C[C@H](O)C(CC2CCCCC2)NC(=O)C(CC#CCNC=O)NC(=O)C(Cc2cccc3ccccc23)Cc2cccc3ccccc23)CCO1 (stereo partly drawn) .
8.06

Give the measured pIC50 of CS/C(=N\CCCCC(NC(=O)C(Cc1cccc2ccccc12)Cc1cccc2ccccc12)C(=O)NC(CC(C)C)[C@@H](O)CC(=O)N1CCOC(CCN)C1)NC#N (stereo partly drawn) .
7.05

Give the measured pIC50 of C/N=C(\S)NCCCCC(NC(=O)C(Cc1ccccc1)NS(=O)(=O)N1CCOCC1)C(=O)NC(CC1CCCCC1)[C@H](O)C(F)(F)C(=O)N1CCOC(CCN)C1 (stereo partly drawn) .
8.64
